meta.source: ChEMBL document CHEMBL3860030

assay: Cytotoxicity against docetaxel-resistant human PC3 cells assessed as decrease in cell viability after 48 hrs by MTT assay; type: functional, cell-based; details: PC-3, 48 h
Structures can show the parent of a compound that is named as a salt.
VALUE TYPE: pIC50
Reminder that pIC50 is minus the log10 of a molar concentration.

**Q:** I am curious: what pIC50 value has been reported for COc1cccc2c1C(=O)c1c(O)c3c(c(O)c1C2=O)C[C@@](O)(C(=O)CO)C[C@@H]3O[C@H]1C[C@H](N)[C@H](O)[C@H](C)O1 [DOXORUBICIN HYDROCHLORIDE] ?
**A:** 4.82

* * *

test: cells; conditions: Homo sapiens, HeLa, 48 h
Description: Cytotoxicity against human HeLa cells assessed as decrease in cell viability after 48 hrs by MTT assay
Where a name gives a salt, the structure may show the parent alone.
VALUE TYPE: IC50 (nM)
Output spec: scalar in nM, unitless text.

**Q:** I am curious: what IC50 value has been reported for COc1cccc2c1C(=O)c1c(O)c3c(c(O)c1C2=O)C[C@@](O)(C(=O)CO)C[C@@H]3O[C@H]1C[C@H](N)[C@H](O)[C@H](C)O1 [DOXORUBICIN HYDROCHLORIDE] ?
**A:** 1060
